tested on: HOP-62 NSCLC; assay: NCI tumour cell line growth inhibition, 48 h
OBSERVATION TYPE: TGI (µM)
Numbers only, in µM.

{"COMPOUND": "CC(SC(C)C(=O)N/N=C/c1cccc(Cl)c1)C(=O)N/N=C\\c1cccc(Cl)c1 (configuration not stated)", "TGI (µM)": 31.4}

I'm hoping you can list TGI for every compound here, please.
1. C=CC(Br)(CBr)CCC(Cl)C(C)C (configuration not stated)
2. COC(=O)/C=C/c1cc(O)c2oc(-c3ccc(O)c(O)c3)c(C(=O)OC)c2c1

3.2
12.7

* * *

So I've got a bunch of compounds here, and I need their TGI values.
system: HCC-2998 colon; assay: NCI tumour cell line growth inhibition, 48 h
Answers are plain numbers, in µM.

Example entries and their recorded answers appear below.
{"COMPOUND": "CC(C)C1OC23CCCCC2C(C#N)(C#N)C1(C#N)C(=N)O3 (stereo not given)", "MEASURED TARGET": "HCC-2998 colon", "OBSERVED": 29.6}
{"COMPOUND": "COC(=O)C1=C(c2ccc3c(c2)OCO3)O[C@H](c2cc(OC)c(OC)c(OC)c2)[C@H]1COC(C)=O", "MEASURED TARGET": "HCC-2998 colon", "OBSERVED": 19.6}
{"COMPOUND": "O=C(c1ccccc1)c1cc(Cl)ccc1OCCCCN1CCN(CCCCOc2ccc(Cl)cc2C(=O)c2ccccc2)CC1", "MEASURED TARGET": "HCC-2998 colon", "OBSERVED": 4.05}
{"COMPOUND": "NS(=O)(=O)c1nn2c(Br)c(-c3ccccc3)nc2s1", "MEASURED TARGET": "HCC-2998 colon", "OBSERVED": 16.7}

I'm hoping you can list TGI for every compound here, please.
1. Oc1ccc2ccccc2c1/C=C/c1ccc2c(Br)cc(Br)c(O)c2n1
2. CC1=Nc2ccccc2C1C(Cc1ccccc1N)c1c(C)[nH]c2ccccc12 (stereo not given)

1: 23.4; 2: 30.2

* * *

system: SK-OV-3 ovarian; assay: NCI tumour cell line growth inhibition, 48 h
So I've got a bunch of molecules here, and I need their TGI values.
Give bare numbers, in µM.

Example entries and their recorded answers appear below.
{"MOLECULE": "O=[N+]([O-])c1ccc(/C=N/n2c(CO)nc3ccccc32)o1", "MEASURED TARGET": "SK-OV-3 ovarian", "OBSERVATION TYPE": "TGI", "OBSERVED": 71.9}
{"MOLECULE": "O=C(Nc1nc2ncn(CCI)c2c(=O)[nH]1)c1ccccc1", "MEASURED TARGET": "SK-OV-3 ovarian", "OBSERVATION TYPE": "TGI", "OBSERVED": 90.5}
{"MOLECULE": "C/C(=C\\CCc1ccoc1)CC/C=C(\\C)CCCC1=CC(=O)OC1", "MEASURED TARGET": "SK-OV-3 ovarian", "OBSERVATION TYPE": "TGI", "OBSERVED": 50.4}
{"MOLECULE": "C=C(C=O)C1CCC2(C(=O)O)CCC3(C)C(CCC4C5(C)CCC(O)C(C)(C)C5CCC43C)C12 (configuration not stated)", "MEASURED TARGET": "SK-OV-3 ovarian", "OBSERVATION TYPE": "TGI", "OBSERVED": 19.6}
{"MOLECULE": "Cc1nc2ccccc2c(=O)n1NC(=O)c1ccc(CS)cc1", "MEASURED TARGET": "SK-OV-3 ovarian", "OBSERVATION TYPE": "TGI", "OBSERVED": 78}

I'm hoping you can list TGI for every molecule here, please.
1. Cc1c2cccnc2c(C)c2c1c1cc(CO)ccc1n2C
2. CC(=O)OC1CCC2(C)C3CCC4(C)C(c5ccc(=O)oc5)CC5OC54C3CCC2(O)C1 (configuration not stated)
3. CC(=O)Oc1cccc2c(/C=N/NC(N)=S)ncc(C)c12
4. CCC[CH2][Sn]([CH2]CCC)([CH2]CCC)[O]C(=O)CC
5. Cc1ccc(S(=O)(=O)Oc2cc(-c3ccccc3)nc3ccccc23)cc1

1. 6.95
2. 10.2
3. 17.1
4. 0.296
5. 5.23

* * *

test system: SNB-19 CNS; assay: NCI tumour cell line growth inhibition, 48 h
Decision: TGI compared against 20 µM; not below it gives label 1, below it gives label 0.

Study these solved cases before continuing.
{"COMPOUND": "CC(C)=C[C@@H]1C[C@H](C)[C@H]2CC[C@H](C)C3=C2[C@](O)(OC3=O)[C@]1(C)O", "GROUP": "label 1"}
{"COMPOUND": "CS(=O)(=O)N/N=C/CN1C(=O)c2ccccc2C1=O", "GROUP": "label 1"}
{"COMPOUND": "CCOC(=O)/C=C/C(C(=O)/C=C/c1ccc(OC2CCCCO2)c(OC)c1)=C(O)\\C=C\\c1ccc(OC2CCCCO2)c(OC)c1 (stereo not given)", "GROUP": "label 1"}
{"COMPOUND": "c1ccc(N=C2SC(=NC3CCCCC3)N(C3CCCCC3)C2=Nc2ccccc2)cc1", "GROUP": "label 1"}
{"COMPOUND": "CCC[CH2][Ge]([CH2]CCC)([CH2]CCC)[O]C(=O)CC(=O)c1ccccc1", "GROUP": "label 1"}
{"COMPOUND": "CNn1c(-c2ccccc2)n[nH]c1=O", "GROUP": "label 1"}
{"COMPOUND": "CCCCCN=Cc1c(O)c(O)c(C(C)C)c2cc(C)c(-c3c(C)cc4c(C(C)C)c(O)c(O)c(C=NCCCCC)c4c3O)c(O)c12", "GROUP": "label 0"}
{"COMPOUND": "O=C(O/N=C1/CCCC/C1=C\\c1ccccc1)c1ccccc1", "GROUP": "label 1"}

Below: the item to evaluate.
Exam item: decide whether the reported TGI for Cc1c2cccnc2c(C)c2c1c1cc(CO)ccc1n2C is at least 20 µM.
label 0

* * *

test system: SK-MEL-28 melanoma; experiment: NCI tumour cell line growth inhibition, 48 h; in the data active means GI50 below about 0.43 µM; inactive means the rest
Would you mind answering with one of these outcomes? active, inactive

Study these solved cases before continuing.
{"COMPOUND": "Cn1c(=O)c2c(nc(Nc3cc(=O)[nH]c(=O)[nH]3)n2Cc2ccccc2)n(C)c1=O", "MEASURED TARGET": "SK-MEL-28 melanoma", "GROUP": "inactive"}
{"COMPOUND": "C=CC1CC12C(=O)C1OC2(C)C2C(=O)c3cc4ccccc4cc3C(=O)C12 (stereo not drawn)", "MEASURED TARGET": "SK-MEL-28 melanoma", "GROUP": "inactive"}
{"COMPOUND": "CCC[CH2][Sn]([CH2]CCC)([CH2]CCC)[O]C(=O)CC", "MEASURED TARGET": "SK-MEL-28 melanoma", "GROUP": "active"}
{"COMPOUND": "COc1ccc2c(c1)C(C)Cc1c(Cl)ncnc1N2C (stereo not drawn)", "MEASURED TARGET": "SK-MEL-28 melanoma", "GROUP": "active"}
{"COMPOUND": "C=C(C=O)C1CCC2(C(=O)O)CCC3(C)C(CCC4C5(C)CCC(O)C(C)(C)C5CCC43C)C12 (stereo not drawn)", "MEASURED TARGET": "SK-MEL-28 melanoma", "GROUP": "inactive"}

Field: outcome | Entry: O=C(OCc1ccc2cccc(O)c2n1)N1CCN(C(=O)c2cc3cc(F)ccc3[nH]2)CC1
inactive

Field: outcome | Entry: CNCCNc1c2c(c(NCCNC)c3c(CN(C)C)c[nH]c13)C(=O)c1ccccc1C2=O
inactive

Field: outcome | Entry: Clc1coc2nc3ccccc3c(Nc3ccc4c(c3)OCO4)c12
inactive

Field: outcome | Entry: NCCCNc1nc2ccccc2c2c(=O)c3cc(OC(F)(F)F)ccc3sc12
inactive

Field: outcome | Entry: Cc1c2cccnc2c(C)c2c1c1cc(CO)ccc1n2C
inactive

Field: outcome | Entry: COc1cc(Nc2cn[nH]c2-c2ccc(Cl)cc2)cc(OC)c1OC
inactive

Field: outcome | Entry: CC(=O)O.CC(=O)O.CC(=O)O.CC(=O)O.CC(=O)O.CC(=O)O.O.[Ti].[Ti]
inactive

Field: outcome | Entry: COc1cc(C(=O)c2cc(C)c3[nH]c4ccc(Cl)cc4c3c2C)cc(OC)c1OC
inactive

Field: outcome | Entry: Clc1ccc2c(NCCCNc3nccc(Nc4ccc(Br)cc4)n3)ccnc2c1
inactive

Field: outcome | Entry: O=C1NC(=Nc2ccccc2)S/C1=C\c1ccc2ncccc2c1
inactive

Field: outcome | Entry: O=C(c1ccccc1)c1cc(Cl)ccc1OCCCCN1CCN(CCCCOc2ccc(Cl)cc2C(=O)c2ccccc2)CC1
inactive

Field: outcome | Entry: COc1ccc2c(c1)CCC1C2CC[C@@]2(C)C1CC1=CC(COC(C)=O)C3C(=O)c4ccccc4C(=O)C3C12 (stereo partly drawn)
inactive

Field: outcome | Entry: C/C(=C\CCc1ccoc1)CC/C=C(\C)CCCC1=CC(=O)OC1
inactive
